Field: LC retention time. Provide a value for each of the molecules that follow.
# ASSAY_PROCEDURE: RP, Waters ACQUITY UPLC HSS T3, 100 × 2.1 mm, 1.8 µm; A: water + 0.1% formic acid, pH 3; B: 30% methanol + 70% acetonitrile + 0.1% formic acid, pH 3; gradient (min/%B) 0.0/5 1.0/8 2.0/15 3.0/40 4.0/70 4.5/100 5.0/100 6.4/100 6.6/5.0 6.8/5.0 7.0/5.0
# PROTOCOL_CONDITIONS: stereoisomer not certain
Where a name gives a salt, the structure may show the parent alone.
// return numeric value only (unit: min, not printed)

Which measured LC retention time value corresponds to "Cn1c(=O)[nH]c2ncn(C)c2c1=O" ? 2.56

Which measured LC retention time value corresponds to "COc1cc(C(=O)O)ccc1O" ? 3.17

Which measured LC retention time value corresponds to O=C(O)C(O)Cc1ccccc1 (stereo not given) ? 3.49

Which measured LC retention time value corresponds to CC(CCC(=O)NCCS(=O)(=O)O)C1CCC2C3CCC4CC(O)CCC4(C)C3CC(O)C12C (stereo not given) ? 4.46

Which measured LC retention time value corresponds to CC(CCC(=O)O)C1CCC2C3CCC4CC(O)CCC4(C)C3CC(O)C12C (stereo not given) ? 4.62

Which measured LC retention time value corresponds to CC12CCC3C(CCC4CC(=O)CCC43C)C1CCC2O (stereo not given) ? 4.47

Which measured LC retention time value corresponds to "O=C(O)CC(O)(CC(=O)O)C(=O)O" ? 0.659

Which measured LC retention time value corresponds to CC1(O)CCOC(=O)C1 (stereo not given) ? 1.19

Which measured LC retention time value corresponds to CC(C)C(N)C(=O)O (stereo not given) ? 0.546

Which measured LC retention time value corresponds to O=C(O)C1OC(Oc2c[nH]c3ccccc23)C(O)C(O)C1O (stereo not drawn) [indoxyl beta-d-glucuronide cyclohexylammonium salt] ? 2.95
